# assay.target: T1, RBFOX1 RRM (Homo sapiens, UniProt Q9NWB1 109-208)
# T1 sequence: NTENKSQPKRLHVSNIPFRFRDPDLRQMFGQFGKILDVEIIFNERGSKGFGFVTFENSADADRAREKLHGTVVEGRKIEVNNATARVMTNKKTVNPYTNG
# protocol.description: EMSA; HiTS-Eq, 1 nM pool, 10 min; buffer printed only for the single-RNA assays: 10 mM Tris pH 7.5, 150 mM NaCl, 3.4 mM EDTA, 0.001% NP-40, 30 C
# setup.conditions: tags: His6 N-terminal (pET28a); label: 5' 32P
Over roughly 16,000 sequences, “ka relative to ugcaugu” has its median near 0.0091; the highest 2% begin near 0.032. Shown is part of a subset that was picked to be rich in the highest values.
readout.type: binding signal

[[record]]
binder = "CCGUGAG (DNA:RNA) RNA: GGGAGACCGGAAUUCAGAUUGUCCCCGUGAGUUAAAUCCCGUCGUAGCCACCA DNA 1: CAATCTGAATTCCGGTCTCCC DNA 2: TGGTGGCTACGACGGGATT"
readout_type = "binding signal"
endpoint_value = "0.0105 KA relative to UGCAUGU"

[[record]]
binder = "GGGCAUG (DNA:RNA) RNA: GGGAGACCGGAAUUCAGAUUGUCCGGGCAUGUUAAAUCCCGUCGUAGCCACCA DNA 1: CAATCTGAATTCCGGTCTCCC DNA 2: TGGTGGCTACGACGGGATT"
readout_type = "binding signal"
endpoint_value = "0.519 KA relative to UGCAUGU"

[[record]]
binder = "CACCGAC (DNA:RNA) RNA: GGGAGACCGGAAUUCAGAUUGUCCCACCGACUUAAAUCCCGUCGUAGCCACCA DNA 1: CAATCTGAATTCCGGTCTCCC DNA 2: TGGTGGCTACGACGGGATT"
readout_type = "binding signal"
endpoint_value = "0.00223 KA relative to UGCAUGU"

[[record]]
binder = "AAUAUGG (DNA:RNA) RNA: GGGAGACCGGAAUUCAGAUUGUCCAAUAUGGUUAAAUCCCGUCGUAGCCACCA DNA 1: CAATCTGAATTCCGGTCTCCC DNA 2: TGGTGGCTACGACGGGATT"
readout_type = "binding signal"
endpoint_value = "0.00711 KA relative to UGCAUGU"

